Each entry below carries its reported AhR RBA (relative binding affinity).
target: Aryl Hydrocarbon Receptor (AhR) (Oryctolagus cuniculus, UniProt O02747); construct: from tissue; host or cells: female New Zealand rabbit liver cytosol; assay: Ligand binding competition assay (Aryl Hydrocarbon Receptor), [3H]TCDD displacement; design: species or system female New Zealand rabbit (liver cytosol); details: cis-stilbenes; resveratrol = 1
Sequence (O02747 whole entry): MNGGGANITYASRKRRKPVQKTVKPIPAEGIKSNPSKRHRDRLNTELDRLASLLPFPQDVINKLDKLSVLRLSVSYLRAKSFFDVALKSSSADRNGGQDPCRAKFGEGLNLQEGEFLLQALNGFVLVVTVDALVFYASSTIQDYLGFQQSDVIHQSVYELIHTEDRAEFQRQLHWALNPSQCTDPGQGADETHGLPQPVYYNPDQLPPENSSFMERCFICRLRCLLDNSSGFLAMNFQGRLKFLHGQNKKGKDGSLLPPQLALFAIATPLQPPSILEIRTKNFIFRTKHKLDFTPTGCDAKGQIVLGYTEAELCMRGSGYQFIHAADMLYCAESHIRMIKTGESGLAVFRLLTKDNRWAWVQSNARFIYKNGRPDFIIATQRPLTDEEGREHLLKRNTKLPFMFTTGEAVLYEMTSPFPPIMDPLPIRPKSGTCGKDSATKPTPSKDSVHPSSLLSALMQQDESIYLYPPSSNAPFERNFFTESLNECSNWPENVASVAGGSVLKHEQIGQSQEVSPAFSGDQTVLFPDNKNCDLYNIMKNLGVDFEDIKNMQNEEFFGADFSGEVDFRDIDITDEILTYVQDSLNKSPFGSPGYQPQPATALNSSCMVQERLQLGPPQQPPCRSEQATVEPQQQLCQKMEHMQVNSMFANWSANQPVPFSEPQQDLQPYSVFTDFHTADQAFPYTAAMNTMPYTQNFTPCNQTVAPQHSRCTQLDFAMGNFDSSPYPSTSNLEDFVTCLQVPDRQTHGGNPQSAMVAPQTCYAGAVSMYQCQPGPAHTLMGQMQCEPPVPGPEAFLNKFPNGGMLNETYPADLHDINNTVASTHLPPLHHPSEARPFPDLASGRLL
The answer should be a number; do not append a unit.

### Prompt Item FC(F)(F)c1ccc(/C=C\c2cc(C(F)(F)F)cc(C(F)(F)F)c2)cc1 [Compound 5e] with Aryl Hydrocarbon Receptor (AhR) (Oryctolagus cuniculus, UniProt O02747) - AhR RBA (relative binding affinity)?
### Response 2.7

### Prompt Under Aryl Hydrocarbon Receptor (AhR) (Oryctolagus cuniculus, UniProt O02747): AhR RBA (relative binding affinity) value of COc1ccc(/C=C\c2cc(OC)cc(OC)c2)cc1 [Compound 5a] ?
### Response 2.1

### Prompt Give recorded AhR RBA (relative binding affinity) with Aryl Hydrocarbon Receptor (AhR) (Oryctolagus cuniculus, UniProt O02747) for the following molecule: CCCCOc1ccc(/C=C\c2cc(OC)cc(OC)c2)cc1 [Compound 5h]
### Response 3.7

### Prompt Please state recorded AhR RBA (relative binding affinity) (tested on Aryl Hydrocarbon Receptor (AhR) (Oryctolagus cuniculus, UniProt O02747)) of CCOc1ccc(/C=C\c2cc(OC)cc(OC)c2)cc1 [Compound 5g]
### Response 2.5

### Prompt Report AhR RBA (relative binding affinity) for Clc1ccc(/C=C\c2cc(Cl)cc(Cl)c2)cc1 [Compound 5b] tested on Aryl Hydrocarbon Receptor (AhR) (Oryctolagus cuniculus, UniProt O02747).
### Response 12.4

### Prompt What value of AhR RBA (relative binding affinity) on Aryl Hydrocarbon Receptor (AhR) (Oryctolagus cuniculus, UniProt O02747) does Fc1ccc(/C=C\c2cc(F)cc(F)c2)cc1 [Compound 5d] have?
### Response 2.6

### Prompt What value of AhR RBA (relative binding affinity) on Aryl Hydrocarbon Receptor (AhR) (Oryctolagus cuniculus, UniProt O02747) does FC(F)(F)c1ccc(/C=C\c2cc(Cl)cc(Cl)c2)cc1 [Compound 5i] have?
### Response 10.9

### Prompt Aryl Hydrocarbon Receptor (AhR) (Oryctolagus cuniculus, UniProt O02747) / AhR RBA (relative binding affinity) / COc1ccc(/C=C\c2cc(Cl)cc(Cl)c2)cc1 [Compound 5j] : value?
### Response 13.0

### Prompt For the record COc1ccc(/C=C\c2cc(F)cc(F)c2)cc1 [Compound 5c] , what value of AhR RBA (relative binding affinity) is listed for Aryl Hydrocarbon Receptor (AhR) (Oryctolagus cuniculus, UniProt O02747)?
### Response 7.2

### Prompt Checklist item: AhR RBA (relative binding affinity) tested on Aryl Hydrocarbon Receptor (AhR) (Oryctolagus cuniculus, UniProt O02747), entry COc1cc(/C=C\c2ccc(F)cc2)cc(OC)c1 [Compound 5f] , value?
### Response 1.7
